procedure details: Terminal half life in end stage renal disease patient undergoing 12 hours continuous venovenous hemofiltration at 500 mg, iv
Assay type: ADME, organism-based
conditions: human, in vivo, read-out: beta t1/2 (converted)

| molecule | half-life |
| --- | --- |
| C[C@@H](O)[C@H]1C(=O)N2C(C(=O)O)=C(S[C@@H]3CN[C@H](CNS(N)(=O)=O)C3)[C@H](C)[C@H]12 [DORIPENEM] | 4.24 h |

---

procedure details: Clearance in end stage renal disease patient undergoing 12 hours continuous venovenous hemofiltration at 500 mg, iv
Format: ADME, organism-based
conditions: human, in vivo, 500 mg

| compound structure string | clearance [mL/min] |
| --- | --- |
| C[C@@H](O)[C@H]1C(=O)N2C(C(=O)O)=C(S[C@@H]3CN[C@H](CNS(N)(=O)=O)C3)[C@H](C)[C@H]12 | 82.4 |
